Data origin: ChEMBL document CHEMBL2346598

system: Mus musculus; test: Hypnotic effect in DBA mouse assessed as reduction in pentobarbital-induced onset of loss of righting reflex at 300 mg/kg, ip incubated for 30 mins prior to pentobarbital-challenge (reference value: 60.0 +/- 0.0 min); type: functional; settings: route intraperitoneal
property.name: Time (min)
Write it as a number; the unit min goes unstated.

As a guide, the following entries are already answered.
>>> experimental_value("CCc1c(C)sc(NC(=O)c2ccc(Cl)cc2)c1C(=O)OC")
45.8
>>> experimental_value("CCc1c(C)sc(NC(=O)c2ccc(C)cc2)c1C(=O)OC")
26.7
>>> experimental_value("CCc1c(C)sc(NC(=O)c2ccc(C(F)(F)F)cc2)c1C(=O)OC")
31.3

# query: Time | item CSc1nc(NC2CCCC2)c([N+](=O)[O-])c(NC2CCCC2)n1 | system: Mus musculus
57.3

###

Reported Time values follow for various compounds
tested on: Mus musculus; assay: Hypnotic effect in DBA mouse assessed as increase in pentobarbital-induced duration of loss of righting reflex at 30 mg/kg, ip incubated for 30 mins prior to pentobarbital-challenge; assay type: functional; settings: route intraperitoneal
Write it as a number; the unit min goes unstated.

As a guide, the following entries are already answered.
>>> experimental_value("CSc1nc(NC2CCCC2)c([N+](=O)[O-])c(NC2CCCC2)n1")
0
>>> experimental_value("CCc1c(C)sc(NC(=O)c2ccc(C(F)(F)F)cc2)c1C(=O)OC")
2.3
>>> experimental_value("CCc1c(C)sc(NC(=O)c2ccc(Cl)cc2)c1C(=O)OC")
0

Please find the next compound below.
# Time lookup, item CCc1c(C)sc(NC(=O)c2ccc(C)cc2)c1C(=O)OC
4.7

###

species on record: Rattus norvegicus; assay: Positive allosteric modulation of GABAB receptor in rat cortical membranes assessed as potentiation of GABA-induced [35S]GTPgammaS binding after 30 mins by liquid scintillation counting analysis; type: functional, cell membranes; conditions: Membrane
Active and inactive are the calls of the source. No cut-off for these calls is given here.
property.name: Activity

>>> experimental_value("CCc1c(C)sc(NC(=O)C2CC2)c1C(=O)OC")
"inactive"
>>> experimental_value("COC(=O)c1c(NC(=O)C2CCCCC2)sc2c1CCCC2")
"inactive"
>>> experimental_value("COC(=O)c1c(NC(=O)c2ccc(OC)c(OC)c2)sc2c1CCCC2")
"inactive"
>>> experimental_value("COc1ccc(C(=O)Nc2sc3c(c2C#N)CCCC3)cc1OC")
"inactive"
>>> experimental_value("CCc1c(C)sc(NC(=O)c2ccc(-c3ccccc3)cc2)c1C(=O)OC")
"inactive"
>>> experimental_value("N#Cc1c(NC(=O)C2CCCCC2)sc2c1CCCC2")
"inactive"
>>> experimental_value("CCCOC(=O)c1c(NC(=O)c2ccc(C)cc2)sc(C)c1CC")
"inactive"
>>> experimental_value("CCc1c(C)sc(NC(=O)c2ccc(-c3ccc(C)cc3)cc2)c1C(=O)OC")
"inactive"
>>> experimental_value("CCc1c(C)sc(NC(=O)Oc2ccccc2)c1C(=O)OC")
"inactive"
>>> experimental_value("CCc1c(C)sc(NC(=O)C2CCCC2)c1C(=O)OC")
"inactive"

Please find the next compound below.
# Activity lookup, item CCc1c(C)sc(NC(=O)c2ccc([N+](=O)[O-])cc2)c1C(=O)OC
inactive
